Target: JNK3 (Homo sapiens (Human))
Sequence (P53779 whole entry): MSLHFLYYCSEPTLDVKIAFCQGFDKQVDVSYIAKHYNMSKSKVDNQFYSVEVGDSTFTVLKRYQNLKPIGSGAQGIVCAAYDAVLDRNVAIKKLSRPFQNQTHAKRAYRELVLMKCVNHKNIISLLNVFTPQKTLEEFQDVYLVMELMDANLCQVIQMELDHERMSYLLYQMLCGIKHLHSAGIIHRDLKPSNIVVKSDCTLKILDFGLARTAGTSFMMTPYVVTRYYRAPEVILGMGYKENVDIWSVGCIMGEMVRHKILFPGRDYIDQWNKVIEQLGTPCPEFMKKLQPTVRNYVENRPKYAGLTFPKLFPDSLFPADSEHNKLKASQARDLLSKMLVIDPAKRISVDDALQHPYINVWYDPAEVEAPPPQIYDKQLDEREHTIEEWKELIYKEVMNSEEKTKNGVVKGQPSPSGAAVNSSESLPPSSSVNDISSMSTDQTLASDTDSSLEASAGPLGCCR
Experiment: Measurement of JNK3 enzyme activity (33P-ATP filter-binding)
Type: biochemical
Conditions: human JNK3, ATP 10 μM, ATF2 3 μM
pIC50: −log10 of the molar value.
Listed here are compounds together with their documented pIC50.

- Compound: "N#CCc1cnc(-c2ccc3c(c2)OCCO3)n1-c1ccnc(NC2CCCCC2)n1 [Example 8]"
  Result: "< 7.00"
- Compound: "CC(O)CNc1nccc(-n2c(CC#N)cnc2-c2ccc3c(c2)OCO3)n1 (stereo not shown) [Example 13]"
  Result: "7.00 to 7.52"
- Compound: "N#CCc1cnc(-c2ccc(F)c(C(F)(F)F)c2)n1-c1ccnc(NC2CCOCC2)n1 [Example 6]"
  Result: "7.00 to 7.52"
- Compound: "N#CCc1cnc(-c2ccc3ccccc3n2)n1-c1ccnc(NC2CCCN(C(=O)C3CC3)C2)n1 (stereo not shown) [Example 33]"
  Result: "> 7.52"
- Compound: "CC(O)CNc1nccc(-n2c(CC#N)cnc2-c2ccc3c(c2)OCCO3)n1 (stereo not shown) [Example 14]"
  Result: "7.00 to 7.52"
- Compound: "N#CCc1cnc(-c2ccc(Cl)c(Cl)c2)n1-c1ccnc(NC2CCOCC2)n1 [Example 5]"
  Result: "7.00 to 7.52"
- Compound: "N#CCc1cnc(-c2ccc3c(c2)OCCO3)n1-c1ccnc(NC2CCCN(C(=O)C3CC3)C2)n1 (stereo not shown) [Example 32]"
  Result: "7.00 to 7.52"
- Compound: "CC(O)CNc1nccc(-n2c(CC#N)cnc2-c2ccc3ccccc3n2)n1 (stereo not shown) [Example 15]"
  Result: "7.00 to 7.52"

The compound CC(O)CNc1nccc(-n2c(CC#N)cnc2-c2ccc3ccccc3c2)n1 (stereo not shown) [Example 16] showed pIC50 equal to 7.00 to 7.52

Short answer for N#CCc1cnc(-c2ccc3ccccc3n2)n1-c1ccnc(NC2CCOCC2)n1 [Example 3] : pIC50 was 7.00 to 7.52

====

Biological target: JNK3 (Homo sapiens (Human))
pIC50: −log10 of the molar value.
Measure: pIC50

- Compound: "N#CCc1cnc(-c2ccc3ccccc3c2)n1-c1ccnc(NC2CCCNC2)n1 (stereo not drawn) [Example 28]"
  Result: "> 7.52"

The recorded pIC50 for entry N#CCc1cnc(-c2ccc(F)c(C(F)(F)F)c2)n1-c1ccnc(NC2CCCNC2)n1 (stereo not drawn) [Example 30] equals 7.00 to 7.52

The compound N#CCc1cnc(-c2ccc(F)c(C(F)(F)F)c2)n1-c1ccnc(NC2CCCCC2)n1 [Example 12] showed pIC50 equal to < 7.00

// recorded pIC50 for N#CCc1cnc(-c2ccc3c(c2)OCCO3)n1-c1ccnc(NC2CCCNC2)n1 (stereo not drawn) [Example 26] : 7.00 to 7.52

According to the records, this compound N#CCc1cnc(-c2ccc(Cl)c(Cl)c2)n1-c1ccnc(NC2CCCCC2)n1 [Example 11] displays pIC50 of 7.00 to 7.52

Form: compound = N#CCc1cnc(-c2ccc3c(c2)OCO3)n1-c1ccnc(NC2CCCN(C(=O)C3CC3)C2)n1 (stereo not drawn) [Example 31] ; pIC50 = 7.00 to 7.52
